The measured values listed here are drawn from ChEMBL document CHEMBL5042504.

measurement-notes: Half life in CD-1 mouse at 5 mg/kg, iv measured upto 24 hrs
Assay type: ADME, organism-based
test-settings: in vivo
test-readout: half-life (h)
Note: unit h is implicit; provide only the numeric part.

// query Quick check: half-life of CCCNNC(=O)c1ccc(CNC(=O)c2cc3ccccc3[nH]2)cc1 ?
// result 6.75

* * *

Record form. Attribute: IC50. Fill in for each entry.
assay-target: UniProtKB O15379
Sequence (O15379 whole entry): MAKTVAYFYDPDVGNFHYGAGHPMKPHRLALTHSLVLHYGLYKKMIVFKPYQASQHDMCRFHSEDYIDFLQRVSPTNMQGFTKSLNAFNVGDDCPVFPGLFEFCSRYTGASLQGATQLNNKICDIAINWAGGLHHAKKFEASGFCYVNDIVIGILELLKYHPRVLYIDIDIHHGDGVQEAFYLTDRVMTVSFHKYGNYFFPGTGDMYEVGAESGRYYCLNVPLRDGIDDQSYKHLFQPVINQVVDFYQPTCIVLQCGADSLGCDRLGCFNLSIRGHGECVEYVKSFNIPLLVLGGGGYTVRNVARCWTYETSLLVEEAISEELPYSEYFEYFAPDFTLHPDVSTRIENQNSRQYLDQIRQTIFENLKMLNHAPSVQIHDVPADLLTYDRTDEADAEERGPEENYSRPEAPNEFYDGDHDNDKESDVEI
measurement-notes: Inhibition of human recombinant HDAC3 using Boc-Lys(acetyl)-AMC substrate incubated for 2 hrs by fluorescence based assay
I only need the number, in nM, no unit after it.

// query Quick check: IC50 of CCCNNC(=O)c1ccc(CNC(=O)c2cc3cc(O)ccc3o2)cc1 ?
// result 0.51

// query Please answer likewise for CCCNNC(=O)c1ccc(CNC(=O)c2cc3ccccc3[nH]2)cc1
// result 0.44

// query What would you report for CCCNNC(=O)c1ccc(CNC(=O)c2cc3cc(F)ccc3o2)cc1 ?
// result 0.83

// query Now the compound CCCNNC(=O)c1ccc(CNC(=O)c2cc3cc(F)ccc3[nH]2)cc1
// result 1.61

// query Now consider CCCNNC(=O)c1ccc(CNC(=O)c2nc3ccccc3s2)cc1 .
// result 1.31

// query Same read-out for CCCNNC(=O)c1ccc(CNC(=O)c2ccc3ccncc3c2)cc1 ?
// result 1.55

// query Now try CCCNNC(=O)c1ccc(CNC(=O)c2ccc3cnccc3n2)cc1 .
// result 2.03

// query Can you check CCCNNC(=O)c1ccc(CNC(=O)c2cc3cc(Cl)ccc3o2)cc1 next?
// result 0.62

// query Next up: CCCNNC(=O)c1ccc(CNC(=O)c2cc3ccccc3o2)cc1
// result 0.38

// query Try this compound next: C=CCOc1ccc2oc(C(=O)NCc3ccc(C(=O)NNCCC)cc3)cc2c1
// result 0.85

// query Same for CCCNNC(=O)c1ccc(CNC(=O)c2ccc3ccccc3n2)cc1
// result 0.9

// query Follow-up entry: CCCNNC(=O)c1ccc(CNC(=O)c2cc3cc(Br)ccc3[nH]2)cc1
// result 1.31

// query Field entry: CCCNNC(=O)c1ccc(CNC(=O)c2cc3cc(OC)ccc3o2)cc1
// result 0.28

// query Same again, this time with CCCNNC(=O)c1ccc(CNC(=O)c2ccc3ccccc3c2)cc1
// result 0.89

// query What do we get for CCCNNC(=O)c1ccc(CNC(=O)c2nc3ccccc3[nH]2)cc1 ?
// result 1.44

* * *

measurement-notes: Cmax in CD-1 mouse at 20 mg/kg, po measured upto 24 hrs
Type: ADME, organism-based
Parameters: route oral, dose 20 mg/kg, time <=24
test-settings: CD-1, mouse, in vivo, read-out: Cmax
test-readout: Cmax (ng/mL)
Respond with the bare value in ng/mL.

// query Given the molecule CCCNNC(=O)c1ccc(CNC(=O)c2cc3ccccc3[nH]2)cc1 , what is its reported Cmax?
// result 38800

* * *

assay-target: Histone deacetylase 1 (Homo sapiens, UniProt Q13547)
Sequence (Q13547 whole entry): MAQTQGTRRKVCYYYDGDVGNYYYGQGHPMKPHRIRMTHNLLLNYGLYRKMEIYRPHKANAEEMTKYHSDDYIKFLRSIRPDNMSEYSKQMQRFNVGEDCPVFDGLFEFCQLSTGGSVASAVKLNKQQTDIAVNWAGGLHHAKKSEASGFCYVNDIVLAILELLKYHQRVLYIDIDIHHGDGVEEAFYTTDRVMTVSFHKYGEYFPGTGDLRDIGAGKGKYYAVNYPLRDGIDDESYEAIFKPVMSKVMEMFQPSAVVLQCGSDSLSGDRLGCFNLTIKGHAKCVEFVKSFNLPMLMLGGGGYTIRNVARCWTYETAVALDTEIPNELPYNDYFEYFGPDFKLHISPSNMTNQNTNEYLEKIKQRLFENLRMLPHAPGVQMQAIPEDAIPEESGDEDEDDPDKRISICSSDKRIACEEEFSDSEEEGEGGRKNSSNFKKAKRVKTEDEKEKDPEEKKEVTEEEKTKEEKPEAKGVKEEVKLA
measurement-notes: Inhibition of human recombinant HDAC1 using Boc-Lys(acetyl)-AMC substrate incubated for 2 hrs by fluorescence based assay
Kindly supply the reported pIC50 values for the records listed here.
Reminder that pIC50 is minus the log10 of a molar concentration.

// query Which measured pIC50 value corresponds to CCCNNC(=O)c1ccc(CNC(=O)c2cc3cc(F)ccc3[nH]2)cc1 ?
// result 7.89

// query And what about the compound CCCNNC(=O)c1ccc(CNC(=O)c2cc3ccccc3[nH]2)cc1 ?
// result 8.52

// query What would you report for C=CCOc1ccc2oc(C(=O)NCc3ccc(C(=O)NNCCC)cc3)cc2c1 ?
// result 7.93

// query What about this compound? CCCNNC(=O)c1ccc(CNC(=O)c2cc3ccccc3cn2)cc1
// result 8.06

// query Input CCCNNC(=O)c1ccc(CNC(=O)c2cc3cc(Cl)ccc3[nH]2)cc1
// result 7.86

// query Request: CCCNNC(=O)c1ccc(CNC(=O)c2cc3ccccc3o2)cc1
// result 8.45

// query Try CCCNNC(=O)c1ccc(CNC(=O)c2ccc3ccccc3n2)cc1 next.
// result 7.97

// query Repeat with CCCNNC(=O)c1ccc(CNC(=O)c2cc3cc(Cl)ccc3o2)cc1
// result 8.05

// query What do we get for CCCNNC(=O)c1ccc(CNC(=O)c2nc3ccccc3[nH]2)cc1 ?
// result 7.95

// query Ok, now CCCNNC(=O)c1ccc(CNC(=O)c2cc3cc(Br)ccc3[nH]2)cc1
// result 7.23

// query Also CCCNNC(=O)c1ccc(CNC(=O)c2ccc3ccncc3c2)cc1 ?
// result 7.68

// query Another: CCCNNC(=O)c1ccc(CNC(=O)c2nc3ccccc3s2)cc1
// result 8.01

// query Moving on to CCCNNC(=O)c1ccc(CNC(=O)c2ccc3cnccc3c2)cc1
// result 7.77

// query Param item: CCCNNC(=O)c1ccc(CNC(=O)c2cc3cc(Br)ccc3o2)cc1
// result 8.11

// query Now the compound CCCNNC(=O)c1ccc(CNC(=O)c2cc3cc(O)ccc3o2)cc1
// result 8.41

// query What about CCCNNC(=O)c1ccc(CNC(=O)c2cnc3ccccc3c2)cc1 ?
// result 7.86

// query Item: CCCNNC(=O)c1ccc(CNC(=O)c2cc3cc(OC)ccc3[nH]2)cc1
// result 8.33

// query How about CCCNNC(=O)c1ccc(CNC(=O)c2ccc3cnccc3n2)cc1 ?
// result 7.79

// query And what about the compound CCCNNC(=O)c1ccc(CNC(=O)c2cc3cc(OC)ccc3o2)cc1 ?
// result 8.13

// query Then this compound: CCCNNC(=O)c1ccc(CNC(=O)c2ccc3ccccc3c2)cc1
// result 8.10

// query Also check CCCNNC(=O)c1ccc(CNC(=O)c2cc3cc(F)ccc3o2)cc1
// result 8.09

* * *

Answer each item with its documented concentration at 2 h.
measurement-notes: Drug distribution in tumor of BALB/c mouse xenografted with human MV4-11 cells assessed as measured after 2 hrs
Type: ADME
test-settings: read-out: Ct
Write your answer as a measured quantity: the number, then the unit.

// query Query (compound): Cc1[nH]c2ccccc2c1CCNCc1ccc(/C=C/C(=O)NO)cc1 [PANOBINOSTAT] ; field requested: concentration at 2 h
// result 151 ng/g

// query Lookup CCCNNC(=O)c1ccc(CNC(=O)c2cc3ccccc3[nH]2)cc1
// result 882 ng/g

* * *

measurement-notes: Drug distribution in tumor of BALB/c mouse xenografted with human MV4-11 cells assessed as measured after 0.5 hrs
Assay type: ADME
test-settings: read-out: Ct
For each entry below, report its concentration at 0.5 h value.
The figure you give is taken to be in ng/g; do not add the unit.

// query State the recorded concentration at 0.5 h for this entry: Cc1[nH]c2ccccc2c1CCNCc1ccc(/C=C/C(=O)NO)cc1
// result 82.4

// query // query: CCCNNC(=O)c1ccc(CNC(=O)c2cc3ccccc3[nH]2)cc1
// result 1130

* * *

Test system: HL-60
measurement-notes: Antiproliferative activity against human HL-60 cells assessed as reduction in cell viability after 48 hrs by multiplate reader method
test-settings: HL-60, 48 h
test-readout: pIC50
Would you please state pIC50, meaning minus log10 of the concentration in mol/L, as a bare number?

// query Enter reported pIC50 observed with HL-60 for CCCNNC(=O)c1ccc(CNC(=O)c2cc3ccccc3[nH]2)cc1
// result 7.58

// query Then what about the compound CCCNNC(=O)c1ccc(CNC(=O)/C=C/c2ccccc2)cc1 ?
// result 7.29

* * *

assay-target: Histone deacetylase 2 (Homo sapiens)
Sequence (Q92769 whole entry): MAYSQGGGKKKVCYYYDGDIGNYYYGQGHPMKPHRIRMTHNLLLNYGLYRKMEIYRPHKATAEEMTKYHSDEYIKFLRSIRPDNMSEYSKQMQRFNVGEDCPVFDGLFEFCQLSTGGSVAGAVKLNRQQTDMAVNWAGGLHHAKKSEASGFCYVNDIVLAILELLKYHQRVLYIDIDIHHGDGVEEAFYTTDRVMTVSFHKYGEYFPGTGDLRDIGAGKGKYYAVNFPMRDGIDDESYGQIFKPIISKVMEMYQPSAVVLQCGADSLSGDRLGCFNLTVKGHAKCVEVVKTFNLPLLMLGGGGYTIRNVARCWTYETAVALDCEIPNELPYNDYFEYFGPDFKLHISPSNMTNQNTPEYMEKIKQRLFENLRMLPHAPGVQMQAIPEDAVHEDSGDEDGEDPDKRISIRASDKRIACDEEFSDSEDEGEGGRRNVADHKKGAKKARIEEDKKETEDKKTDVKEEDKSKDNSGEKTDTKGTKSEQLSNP
measurement-notes: Inhibition of human recombinant HDAC2 using Boc-Lys(acetyl)-AMC substrate incubated for 2 hrs by fluorescence based assay
test-readout: IC50 (nM)
Numbers only here, please. The scale is nM.

// query Reported IC50, compound CCCNNC(=O)c1ccc(CNC(=O)c2cc3cc(F)ccc3o2)cc1 : ____
// result 27.9

// query // repeat for CCCNNC(=O)c1ccc(CNC(=O)c2nc3ccccc3[nH]2)cc1 and report
// result 33.4

// query Let us now turn to CCCNNC(=O)c1ccc(CNC(=O)c2cc3cc(OC)ccc3[nH]2)cc1
// result 16.4

// query Next: CCCNNC(=O)c1ccc(CNC(=O)c2cc3cc(Cl)ccc3o2)cc1
// result 28.1

// query Also check CCCNNC(=O)c1ccc(CNC(=O)c2cc3cc(OC)ccc3o2)cc1
// result 26.1

// query And what about the compound CCCNNC(=O)c1ccc(CNC(=O)c2cc3ccccc3cn2)cc1 ?
// result 30.9

// query What do you have for CCCNNC(=O)c1ccc(CNC(=O)c2ccc3ccncc3c2)cc1 ?
// result 30.1

// query Then CCCNNC(=O)c1ccc(CNC(=O)c2cc3cc(Br)ccc3o2)cc1 ?
// result 23.7

// query Next compound: CCCNNC(=O)c1ccc(CNC(=O)c2cnc3ccccc3c2)cc1
// result 59.6

// query Try this compound next: CCCNNC(=O)c1ccc(CNC(=O)c2ccc3cnccc3n2)cc1
// result 41.4

// query And CCCNNC(=O)c1ccc(CNC(=O)c2ccc3ccccc3n2)cc1 ?
// result 57.3

// query Now consider CCCNNC(=O)c1ccc(CNC(=O)c2cc3cc(F)ccc3[nH]2)cc1 and answer again.
// result 52.7

// query Query CCCNNC(=O)c1ccc(CNC(=O)c2nc3ccccc3s2)cc1 next
// result 42

// query Again, but for CCCNNC(=O)c1ccc(CNC(=O)c2ccc3cnccc3c2)cc1
// result 39.6

// query Query CCCNNC(=O)c1ccc(CNC(=O)c2cc3cc(Cl)ccc3[nH]2)cc1 next
// result 46.1

// query // same read-out, input: CCCNNC(=O)c1ccc(CNC(=O)c2cc3ccccc3o2)cc1
// result 15.1

// query Try this compound too: CCCNNC(=O)c1ccc(CNC(=O)c2cc3cc(Br)ccc3[nH]2)cc1
// result 186

// query Consider next the compound C=CCOc1ccc2oc(C(=O)NCc3ccc(C(=O)NNCCC)cc3)cc2c1 in the same way.
// result 35.8

// query Moving on to the next compound: CCCNNC(=O)c1ccc(CNC(=O)c2ccc3ccccc3c2)cc1
// result 30.5

// query Subsequent entry: CCCNNC(=O)c1ccc(CNC(=O)c2cc3cc(O)ccc3o2)cc1
// result 16.1

// query # iterate: CCCNNC(=O)c1ccc(CNC(=O)c2cc3ccccc3[nH]2)cc1
// result 18.5
